experimental-details: Oral bioavailability in Han Wistar rat at 2.3 to […]
Format: ADME, organism-based
particulars: in vivo, at 2.3 to […]
readout-label: bioavailability (%)

Nc1ncnc2c1C(=O)N(c1ccc(-c3ccc(CC(=O)N4CC[C@@H](O)C4)cc3Cl)cc1)CCO2 : 15
CN(Cc1ccc(-c2ccc(N3CCOc4ncnc(N)c4C3=O)cc2)c(Cl)c1)S(C)(=O)=O : 28
Nc1ncnc2c1C(=O)N(c1ccc(-c3cc(Cl)ccc3Cl)cc1)CCO2 : 110

P: Nc1ncnc2c1C(=O)N(c1ccc(-c3cccc(Cl)c3Cl)cc1)CCO2
Q: Nc1ncnc2c1C(=O)N(c1ccc(-c3ccccc3Cl)c(F)c1)CCO2
Between P and Q , which one has the lower reported bioavailability value? # reply format: chosen label
Q
